tested on: TAB165; assay: qHTS profiling for inhibitors of Plasmodium falciparum proliferation (AID 504749); also: nearly all actives have a fitted effect of over 60% in size; settings: P. falciparum in erythrocytes, SYBR Green DNA, 72 h; series mostly up to 28.7 µM
Results filed as inconclusive are left out. Activity calls are given as the source filed them. Calls follow the shape of the dose curve; as a rule, active = well fitted inhibition curve with a large enough effect; inconclusive = small, poorly fitted or top-dose-only effect; inactive = flat fitted curve, though single readings scatter.
# valid calls are yes for active, no for inactive; nothing else

{"COMPOUND": "CCCCCCCCCCCCCCCC[N+](C)(C)Cc1ccccc1", "TARGET OR SYSTEM": "TAB165", "QUALITATIVE LABEL": "yes"}
{"COMPOUND": "CC(NCCC(c1ccccc1)c1ccccc1)c1ccccc1 (configuration not stated)", "TARGET OR SYSTEM": "TAB165", "QUALITATIVE LABEL": "yes"}
{"COMPOUND": "Nc1c2ccccc2nc2ccccc12", "TARGET OR SYSTEM": "TAB165", "QUALITATIVE LABEL": "yes"}

Which result was noted for this compound in the test: Nc1ncnc2nc[nH]c12
no

Which result was noted for this compound in the test: CN1CCCN(C(c2ccccc2)c2ccc(Cl)cc2)CC1 (configuration not stated)
yes

Which result was noted for this compound in the test: CCCCCCCCCCCCCCCC[n+]1ccccc1
yes

Which result was noted for this compound in the test: O=S(=O)(O)c1ccc2nc(-c3ccccc3)[nH]c2c1
no

###

molecular target: Cytochrome P450 3A4 (Homo sapiens) (UniProt P08684); assay: qHTS Assay for Activators of Cytochrome P450 3A4 (AID 885); conditions: recombinant CYP3A4, Luciferin-PPXE luminescence, 60 min; series mostly up to 57.1 µM; also: nearly all actives have a fitted effect of over 65% in size
Sequence (P08684 whole entry, looked up): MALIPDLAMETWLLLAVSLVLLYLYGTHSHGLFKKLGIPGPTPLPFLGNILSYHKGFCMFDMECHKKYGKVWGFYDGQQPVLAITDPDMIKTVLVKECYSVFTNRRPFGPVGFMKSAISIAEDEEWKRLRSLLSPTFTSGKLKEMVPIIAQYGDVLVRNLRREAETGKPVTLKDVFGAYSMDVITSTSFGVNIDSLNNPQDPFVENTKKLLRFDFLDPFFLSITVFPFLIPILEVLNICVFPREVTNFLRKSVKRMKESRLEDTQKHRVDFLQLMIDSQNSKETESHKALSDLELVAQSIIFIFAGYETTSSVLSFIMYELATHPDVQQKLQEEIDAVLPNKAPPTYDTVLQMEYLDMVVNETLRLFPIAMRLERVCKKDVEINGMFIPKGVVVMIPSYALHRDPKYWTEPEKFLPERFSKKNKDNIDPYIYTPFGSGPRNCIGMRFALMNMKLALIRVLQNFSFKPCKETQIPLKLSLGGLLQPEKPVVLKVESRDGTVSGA
Calls of active or inactive are those of the source. Calls come from the whole dose curve; as a rule, active = well fitted activation curve with a large enough effect; inconclusive = small, poorly fitted or top-dose-only effect; inactive = no such curve, though single readings can be large or run the other way.
# valid calls are active, inactive; nothing else

Here's what some known entries look like.
{"SMILES STR": "CC(C)N(CCC(=O)c1ccc2ccccc2c1)Cc1ccccc1", "TARGET OR SYSTEM": "Cytochrome P450 3A4 (Homo sapiens) (UniProt P08684)", "QUALITATIVE LABEL": "inactive"}
{"SMILES STR": "CN(C)c1cc2c(Nc3ccc4c(cnn4Cc4ccccc4)c3)ncnc2cn1", "TARGET OR SYSTEM": "Cytochrome P450 3A4 (Homo sapiens) (UniProt P08684)", "QUALITATIVE LABEL": "inactive"}
{"SMILES STR": "COc1ccccc1N1CCN(CCN2C(=O)CC3(CCCC3)CC2=O)CC1", "TARGET OR SYSTEM": "Cytochrome P450 3A4 (Homo sapiens) (UniProt P08684)", "QUALITATIVE LABEL": "inactive"}
{"SMILES STR": "Cc1nn(-c2ccccc2)c(C)c1/C=N/N1CCN(Cc2ccccc2)CC1", "TARGET OR SYSTEM": "Cytochrome P450 3A4 (Homo sapiens) (UniProt P08684)", "QUALITATIVE LABEL": "active"}

Which result was noted for this compound in the test: O=[N+]([O-])c1ccc(-c2nc(-c3ccc(F)cc3)c(-c3ccncc3)[nH]2)cc1
inactive

###

assay: qHTS Assay for Lipid Storage Modulators (AID 1519); conditions: Drosophila S3 cells, BODIPY lipid droplet/cell ratio, laser cytometry; measured here: lipid channel max response; cells loaded with oleic acid
Inconclusive results are not listed.
I'd appreciate it if you marked entries t when max response is lower than 10% and f when it is not.

Here's what some known entries look like.
{"SMILES STR": "O=C(O)/C=C(\\CC(=O)O)C(=O)O", "QUALITATIVE LABEL": "t"}
{"SMILES STR": "Cc1ccc(O)cc1", "QUALITATIVE LABEL": "f"}
{"SMILES STR": "Cc1cc(C(C)(C)C)c(O)c(C(C)(C)C)c1", "QUALITATIVE LABEL": "f"}
{"SMILES STR": "Brc1ccc([C@H]2CN3CCSC3=N2)cc1", "QUALITATIVE LABEL": "t"}

Lab log: compare recorded max response with 10%; is it strictly lower for CN(C(=O)C(Cl)Cl)c1ccc(OC(=O)c2ccco2)cc1 ?
t

###

system: C33A; experiment: Primary qHTS to identify gynecologic anti-cancer compounds using libraries of approved drugs and bioactive compounds (AID 1345084); conditions: Gynecologic cancer cell panel viability, ATPlite luminescence, 48 h; series mostly up to 57.5 µM; also: nearly all actives have a fitted effect of over 55% in size
Inconclusive results are not listed. Calls of active or inactive are those of the source. The call rests on the fitted dose curve; in most records, active means well fitted cell-killing curve with a large enough effect; inconclusive means small, poorly fitted or top-dose-only effect, or effect the other way; inactive means flat fitted curve, though single readings scatter.

{"SMILES STR": "CN1C(=O)c2ccccc2C1=O", "outcome": "inactive"}
{"SMILES STR": "CCC(=O)O[C@H]1[C@H](O[C@@H]2[C@@H](C)[C@H](O[C@H]3C[C@@](C)(OC)[C@@H](O)[C@H](C)O3)[C@@H](C)C(=O)O[C@H](CC)[C@@](C)(O)[C@H](O)[C@@H](C)C(=O)[C@H](C)C[C@@]2(C)O)O[C@H](C)C[C@@H]1N(C)C", "outcome": "inactive"}
{"SMILES STR": "N#Cc1cc(NC(=O)C(=O)O)c(Cl)c(NC(=O)C(=O)O)c1", "outcome": "inactive"}

###

assay: qHTS of pediatric cancer cell lines to identify multiple opportunities for drug repurposing: Primary screen for SJ-GBM2 cells (AID 1347091); details: SJ-GBM2 viability, CellTiter-Glo luminescence, 48 h; series mostly up to 46 µM
Results filed as inconclusive are left out. The source made the active and inactive calls. The call rests on the fitted dose curve; in most records, active means well fitted cell-killing curve with a large enough effect; inconclusive means small, poorly fitted or top-dose-only effect; inactive means no such curve, though single readings can be large or run the other way.
# valid calls are active, inactive; nothing else

Here's what some known entries look like.
{"COMPOUND": "CCCC(=O)Nc1ccc(O)c(C(C)=O)c1", "QUALITATIVE LABEL": "inactive"}
{"COMPOUND": "Cc1cc(C(C)(C)C)c(O)c(C(C)(C)C)c1", "QUALITATIVE LABEL": "inactive"}
{"COMPOUND": "Cc1ncc([N+](=O)[O-])n1C", "QUALITATIVE LABEL": "inactive"}
{"COMPOUND": "Nc1cccc2c(N)cccc12", "QUALITATIVE LABEL": "inactive"}
{"COMPOUND": "CN(CC1(C)CCCO1)S(=O)(=O)c1ccc(Cl)c(S(N)(=O)=O)c1 (centres undefined)", "QUALITATIVE LABEL": "inactive"}

Which result was noted for this compound in the test: CC(NN)c1ccccc1 (centres undefined)
inactive

Which result was noted for this compound in the test: Nc1ccc(O)cc1
inactive

Which result was noted for this compound in the test: COc1ccc(CCC(C)=O)cc1
inactive

Which result was noted for this compound in the test: CCCCC/C=C\C/C=C\CCCCCCCC(=O)NC(C)c1ccccc1 (centres undefined)
inactive

Which result was noted for this compound in the test: COc1cc(OC)nc(O[C@H](C(=O)O)C(OC)(c2ccccc2)c2ccccc2)n1
inactive

Which result was noted for this compound in the test: C=CCOc1cc(Cl)ccc1C(=O)NCCN(CC)CC
inactive

Which result was noted for this compound in the test: CN(C)CCCOC1(Cc2ccccc2)CCCCCC1
inactive

Which result was noted for this compound in the test: Cc1cc(=O)oc2cc(O[C@@H]3SC[C@@H](O)[C@H](O)[C@H]3O)ccc12
inactive

Which result was noted for this compound in the test: CC(C)(C)C(O)/C=C/c1ccc2c(c1)OCO2 (centres undefined)
inactive

Which result was noted for this compound in the test: O=C(O)CCCC[P+](c1ccccc1)(c1ccccc1)c1ccccc1
inactive

Which result was noted for this compound in the test: CCOC(=O)O[C@]1(C(=O)OCCl)CC[C@H]2[C@@H]3CCC4=CC(=O)C=C[C@]4(C)[C@H]3[C@@H](O)C[C@@]21C
inactive

Which result was noted for this compound in the test: CCOC(=O)C(O)c1ccccc1 (centres undefined)
inactive

Which result was noted for this compound in the test: CCC1(c2cnc[nH]2)Cc2ccccc2C1
inactive

Which result was noted for this compound in the test: CCC[C@H](N[C@@H](C)C(=O)N1[C@H](C(=O)O)C[C@@H]2CCCC[C@@H]21)C(=O)OCC
inactive

Which result was noted for this compound in the test: O=C(O)C(=O)Nc1cccc(-c2nn[nH]n2)c1
inactive

Which result was noted for this compound in the test: COC(=O)CCCCC(CCSS/C(CCO)=C(\C)N(C=O)Cc1cnc(C)nc1N)SC(C)=O (centres undefined)
inactive

###

tested on: HeLa; assay: Primary qHTS to identify gynecologic anti-cancer compounds using libraries of approved drugs and bioactive compounds (AID 1345084); details: Gynecologic cancer cell panel viability, ATPlite luminescence, 48 h; series mostly up to 57.5 µM; also: nearly all actives have a fitted effect of over 55% in size
Records with an inconclusive call do not appear. Calls of active or inactive are those of the source. The call rests on the fitted dose curve; in most records, active means well fitted cell-killing curve with a large enough effect; inconclusive means small, poorly fitted or top-dose-only effect, or effect the other way; inactive means flat fitted curve, though single readings scatter.
# valid calls are True = active, False = inactive; nothing else

Here's what some known entries look like.
{"MOLECULE": "Cc1ccc(/C=N/n2c(-c3ccccc3)csc2=S)cc1", "QUALITATIVE LABEL": "False"}
{"MOLECULE": "C[C@H]1C[C@@H]2[C@H]([C@@H](O)C[C@@]3(C)[C@H]2CC[C@]3(O)C(=O)CO)[C@@]2(C)C=CC(=O)C=C12", "QUALITATIVE LABEL": "False"}
{"MOLECULE": "Nc1nc(=O)n([C@@H]2O[C@H](CO)[C@@H](O)[C@@H]2F)cc1I", "QUALITATIVE LABEL": "False"}
{"MOLECULE": "CCOC(=O)[C@H](CCc1ccccc1)N[C@@H](C)C(=O)N(CC(=O)O)C1Cc2ccccc2C1", "QUALITATIVE LABEL": "False"}
{"MOLECULE": "O=C(O)Cn1c(=O)n(Cc2ccc(Br)cc2F)c(=O)c2ccc(Cl)cc21", "QUALITATIVE LABEL": "False"}

Which result was noted for this molecule in the test: COc1ccc(OC(=O)N(CC(=O)O)Cc2ccc(OCCc3nc(-c4ccccc4)oc3C)cc2)cc1
False

Which result was noted for this molecule in the test: CC1(C)OC(=O)Nc2ccc(Br)cc21
True

Which result was noted for this molecule in the test: CC(=O)N1CCN(c2ccc(O)cc2)CC1
False

Which result was noted for this molecule in the test: O=C(O)c1ccc(OCCN2CCCCC2)cc1
False

Which result was noted for this molecule in the test: CCCC(CCC)(C(=O)OCC)C(=O)OCC
False
